- System: DNA
- PROCEDURE_SUMMARY: Binding affinity to calf thymus DNA in phosphate buffer at pH 7.4 assessed as intercalation in DNA at 20 uM after 10 mins by circular dichroism method
- Format: nucleic-acid assay
- SETTINGS: Bos taurus
Calls of active or inactive are those of the source. No cut-off for these calls is given here.
Classes used: active, inactive

SMILES_ENTRY	LABEL_VALUE
COc1ccc2c(-c3ccc(OCCN4CCCCC4)cc3)c(-c3ccccc3)c(=O)oc2c1	active
O=c1oc2cc(OCCN3CCOCC3)ccc2c(-c2ccc(OCCN3CCOCC3)cc2)c1-c1ccccc1	active
O=c1oc2cc(OCCN3CCCCC3)ccc2c(-c2ccc(OCCN3CCCCC3)cc2)c1-c1ccc(OCCN2CCCCC2)cc1	active
O=c1oc2cc(OCCN3CCCCC3)ccc2c(-c2ccc(OCCN3CCCCC3)cc2)c1-c1ccccc1	active
O=c1oc2cc(O)ccc2c(-c2ccc(O)cc2)c1-c1ccccc1	inactive

FYI, the data here is from ChEMBL document CHEMBL2412973.
